# average titer of specific antibodies listing for each entry below
Test system: specific serum IgG antibodies in sera from patients diagnosed with a H. pylori infection
ASSAY_COMMENT: Quantitative Western-blot analysis (integrated optical density) of patient sera on H. pylori whole cell lysate antigens
Format: binding, human
MEASUREMENT_CONTEXT: average of all strains (FIG. 4); 3 months after eradication treatment
MEASURED_PARAMETER: average titer of specific antibodies (%)

INSERT INTO results (molecule, measured_parameter, endpoint_value) VALUES
  ('HpaA-neuraminyl-lactose-hemagglutinin precursor (protein, 32 kd H. pylori antigen band in whole cell lysate, identified as HpaA) MKKGSLAIVLGSLLASGAFYTALADGMPAKQQHNNTGESVELHFHYPIKGKQEPKNSHLVVLIEPKIEINKVIPESYQKEFEKSLFLQLSSFLERKGYSVSQFKDASEIPQDIKEKALLVLRMDGNVAILEDIVEESDALSEEKVIDMSSGYLNLNFVEPKSEDIIHSFGIDVSKIKAVIERVELRRTNSGGFVPKTFVHRIKETDHDQAIRKIMNQAYHKVMVHITKELSKKHMEHYEKVSSEMKKRK', 'average titer of specific antibodies', 38.5),
  ('HP0596 a hypothetical protein (protein, 23 kd H. pylori antigen band in whole cell lysate, identified as HP0596) MLEKSFLKSKQLFLCGLGVLMLQACTCPNTSQRNSFLQDVPYWMLQNRSEYITQGVDSSHIVDGKKTEEIEKIATKRATIRVAQNIVHKLKEAYLSKTNRIKQKITNEMFIQMTQPIYDSLMNVDRLGIYINPNNEEVFALVRARGFDKDALSEGLHKMSLDNQAVSILVAKVEEIFKDSVNYGDVKVPIAM', 'average titer of specific antibodies', 36.29),
  ('RPL7/L12 50S ribosomal protein L7/L12 (protein, 15 kd H. pylori antigen band in whole cell lysate, identified as RPL7/L12) MNISVNPYLMAVVFVVFVLLLWAMNVWVYRPLLAFMDNRQAEIKDSLAKIKTDNAQSVEIGHQIEALLKEAAEKRREIIAEAIQKATESYDAVIKQKENELNQEFEAFAKQLQNEKQALKEQLQAQMPVFEDELNKRVAMGLGS', 'average titer of specific antibodies', 31.61),
  ('Omp18-peptido-glycan associated lipoprotein precursor (protein, 30 kd H. pylori antigen band in whole cell lysate, identified as Omp18) MKRSSVFSFLVAFLLVAGCSHKMDNKTVAGDVSAKTVQTAPVTTEPAPEKEEPKQEPAPVVEEKPAVESGTIIASIYFDFDKYEIKESDQETLDEIVQKAKENHMQVLLEGNTDEFGSSEYNQALGVKRTLSVKNALVIKGVEKDMIKTISFGETKPKCAQKTRECYKENRRVDVKLMK', 'average titer of specific antibodies', 49.73);
